Biological target: native CB1 receptors (Rattus norvegicus, UniProt P20272)
Sequence (P20272 whole entry): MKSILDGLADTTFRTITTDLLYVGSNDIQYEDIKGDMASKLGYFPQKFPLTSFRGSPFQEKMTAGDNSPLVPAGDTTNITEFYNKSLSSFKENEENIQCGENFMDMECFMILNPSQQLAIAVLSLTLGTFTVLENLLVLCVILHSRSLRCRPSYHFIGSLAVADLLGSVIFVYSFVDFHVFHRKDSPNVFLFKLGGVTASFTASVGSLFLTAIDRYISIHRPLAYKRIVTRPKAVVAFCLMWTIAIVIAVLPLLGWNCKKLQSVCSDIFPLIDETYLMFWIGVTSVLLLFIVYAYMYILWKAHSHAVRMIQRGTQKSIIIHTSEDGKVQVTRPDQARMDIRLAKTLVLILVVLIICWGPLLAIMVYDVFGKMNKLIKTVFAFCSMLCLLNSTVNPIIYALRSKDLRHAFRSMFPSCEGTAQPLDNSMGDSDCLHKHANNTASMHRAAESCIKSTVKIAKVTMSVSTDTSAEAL
Test: CB1 receptor rat binding assay ([3H]SR141716A, rat brain membranes)
Conditions: rat brain membranes, [3H]SR141716A
recorded.metric: Binding rat Inh % (%)
Number only, in %; omit the unit.

Take a look at these entries with their results.
- molecule: "CCCCNC(=O)c1ccc2c(c1)N=C(c1ccc(Cl)s1)c1cc(F)ccc1S2 [drawing 1515]"
  system.name: "native CB1 receptors (Rattus norvegicus, UniProt P20272)"
  Binding rat Inh %, %: 96
- molecule: "Cc1ccsc1C1=Nc2cc(C(=O)NC3CCCC3)ccc2Sc2ccccc21 [drawing 1382]"
  system.name: "native CB1 receptors (Rattus norvegicus, UniProt P20272)"
  Binding rat Inh %, %: 102
- molecule: "O=C(NCCc1ccccn1)c1ccc2c(c1)N=C(c1ccc(Cl)c(Cl)c1)c1ccccc1S2 [drawing 1452]"
  system.name: "native CB1 receptors (Rattus norvegicus, UniProt P20272)"
  Binding rat Inh %, %: 114
- molecule: "O=C(NCCc1cccnc1)c1ccc2c(c1)N=C(c1ccc(Cl)s1)c1ccccc1S2 [drawing 1466]"
  system.name: "native CB1 receptors (Rattus norvegicus, UniProt P20272)"
  Binding rat Inh %, %: 98
- molecule: "CC(C)CNC(=O)c1ccc2c(c1)N=C(c1ccccn1)c1ccccc1S2 [drawing 1217]"
  system.name: "native CB1 receptors (Rattus norvegicus, UniProt P20272)"
  Binding rat Inh %, %: 79
- molecule: "Cc1ccc(CNC(=O)c2ccc3c(c2)N=C(c2cccc(Cl)c2)c2ccccc2S3)o1 [drawing 1231]"
  system.name: "native CB1 receptors (Rattus norvegicus, UniProt P20272)"
  Binding rat Inh %, %: 85

Exercise: Look at this molecule and give its reported Binding rat Inh %. O=C(NCCC(F)(F)F)c1ccc2c(c1)N=C(c1ccc(Cl)s1)c1ccccc1S2 [drawing 1273]
Solution: 85

Exercise: Dear colleague, I am looking for the recorded Binding rat Inh % of the following molecule: CCCCNC(=O)c1ccc2c(c1)N=C(c1ccc(Cl)cn1)c1ccccc1S2 [drawing 1501]
Solution: 98

Exercise: Name the recorded Binding rat Inh % for O=C(NN1CCCCC1)c1ccc2c(c1)N=C(c1ccc(Cl)c(F)c1)c1ccccc1S2 [drawing 1394] .
Solution: 87

Exercise: Find the recorded Binding rat Inh % belonging to O=C(NCCC(F)(F)F)c1ccc2c(c1)N=C(c1ccc(F)cc1)c1ccccc1S2 [drawing 1418] and report it.
Solution: 105

Exercise: Endpoint output: Binding rat Inh % of CCCNC(=O)c1ccc2c(c1)N=C(c1ccc(F)cc1)c1ccccc1S2 [drawing 1262] . Value?
Solution: 87

Exercise: Any idea what its Binding rat Inh % is? The molecule is O=C(NCc1cccs1)c1ccc2c(c1)N=C(c1cccc(F)c1)c1ccccc1S2 [drawing 1384]
Solution: 95

Exercise: Binding rat Inh % for O=C(NCCC(F)(F)F)c1ccc2c(c1)N=C(c1cccc(Cl)c1)c1ccccc1S2 [drawing 1250] ?
Solution: 88

Exercise: Returns the measured Binding rat Inh % for the input molecule. Input: O=C(NCc1ccco1)c1ccc2c(c1)N=C(c1ccccc1F)c1ccccc1S2 [drawing 1435]
Solution: 83

Exercise: Name the recorded Binding rat Inh % for CCOC(=O)c1ccc(C2=Nc3cc(C(=O)NCc4ccccn4)ccc3Sc3ccccc32)cc1 [drawing 1476] .
Solution: −43

// data source = patent US20080090805A1
